Data credit: PubChem BioAssay (NCATS)

# Protocol notes: KB-3-1 Cancer Cell Toxicity qHTS against the NCATS CANVASS Library (AID 1347366); note: nearly all actives have a fitted effect of over 75% in size
# Condition details: KB-3-1 viability, CellTiter-Glo luminescence, 72 h; series mostly up to 46.1 µM
Records with an inconclusive call do not appear. The source made the active and inactive calls. Calls come from the whole dose curve; as a rule, active = well fitted cell-killing curve with a large enough effect; inconclusive = small, poorly fitted or top-dose-only effect; inactive = flat fitted curve, though single readings scatter.
Classes used: active, inactive

Compound	Group
C=C(NC(=O)c1csc(-c2nc3c(cc2O)-c2nc(cs2)C(=O)NC(C(C)O)C(=O)N/C(=C(\C)O)c2nc(cs2)C(=O)NC2c4nc(cs4)C(=O)NC(COC(=O)c4c5c6c(cccc6n4O)COC(=O)[C@@H](OC4C[C@](C)(O)[C@H](N(C)C)[C@H](C)O4)C2OC5)c2nc-3cs2)n1)C(N)=O (stereo partly drawn)	inactive
C/C=C/C(=O)[C@@H](C)C1=CC(=O)C2=C(O[C@@]34CC[C@H](O)C(C)(C)[C@@H]3CC[C@H](C)[C@@]4(C)C2)C1=O	active
C/C(=C\[C@H](C)C(=O)CCCC1CC(=O)NC(=O)C1)C(O)[C@@H](C)[C@H](O)C/C=C/CC/C=C/C(=O)O (stereo partly drawn)	inactive

###

# Protocol notes: qHTS for H2AX Agonists against the NCATS CANVASS Library (AID 1347378);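 note: phospho-H2AX S139 level in CHO-K1 lysates by TR-FRET emission ratio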; for activation: 0% is about no effect
# Condition details: CHO-K1 H2AX phosphorylation, HTRF TR-FRET, 3 h; series mostly up to 76.9 µM
Records with an inconclusive call do not appear. Calls of active or inactive are those of the source. Calls come from the whole dose curve; as a rule, active = well fitted activation curve with a large enough effect; inconclusive = small, poorly fitted or top-dose-only effect; inactive = flat fitted curve, though single readings scatter. Peptide text beside a SMILES is read from it. * marks the point of attachment. Octanoyl = CCCCCCCC(=O)*
Outcomes: active, inactive

Compound	Group
C=C[C@]1(C)CC[C@@H]([C@H](C)C(=O)OCC)O1	inactive
CCCCCCCC(=O)N[C@@H](CC(C)C)C(=O)N[C@H](C=O)CCC(=O)O (Octanoyl-Leu-Glu-aldehyde)	inactive
COc1ccc([C@@H]2c3cc(OC)c(OC)cc3C(=O)C(C)C2C)cc1OC (some centres not stated)	inactive
CN1CC[C@]2(c3cccc4c3N[C@@H]3N(C)CC[C@]43[C@@]34CCN(C)[C@@H]3Nc3c([C@]56CCN(C)[C@H]5Nc5ccccc56)cccc34)c3ccccc3N[C@H]12	active
O=Cc1ccc2n1C[C@@]1(C[C@H](O)[C@@H](CO)O1)OC2	inactive
Cc1cc(O)cc2oc(C[C@H](C)O)cc(=O)c12	inactive
O=C(OC1Cc2c(O)cc(O)cc2OC1c1cc(O)c(O)c(O)c1)c1cc(O)c(O)c(O)c1 (configuration not stated)	inactive
C=C(C)[C@@H]1CC[C@]2(C)CC[C@]3(C)[C@H](CC[C@@H]4[C@@]5(C)CC[C@H](O)C(C)(C)[C@@H]5CC[C@]43C)[C@@H]12	inactive
O=Cc1ccc2n1C[C@@]1(OC2)O[C@H](CO)[C@@H](O)[C@@H]1O	inactive
COc1cc(O)c2c3c(c(O)cc(C)c13)C(=O)OC2	inactive
Oc1ccc([C@H]2Oc3ccc(/C=C/c4cc(O)cc(O)c4)cc3C2c2cc(O)cc(O)c2)cc1 (some centres not stated)	inactive
CO[C@@H]1[C@H](O)[C@@H](C)O[C@@H](OC[C@H]2/C=C/C=C/C(=O)C(C)C[C@H](C)C(O[C@@H]3O[C@H](C)CC4(OC(=O)O[C@@H]4C)C3O)[C@@H](C)/C=C/C(=O)OC2C)[C@@H]1OC (some centres not stated)	inactive
CC1=CC[C@@]2(C[C@@H]1O)[C@@H](C(=O)O)CC[C@H]2C(C)C	inactive
CN1CC[C@]2(c3cccc4c3N[C@@H]3N(C)CC[C@]43[C@@]34CCN(C)[C@@H]3Nc3ccccc34)c3ccccc3N[C@H]12	inactive
O=C(O)[C@@]12CO[C@@]3(O)C4CCN(CC[C@H]31)[C@H]4c1c2[nH]c2ccccc12	inactive
CC(C)(Br)[C@@H](Cl)C[C@H](Br)[C@](C)(Cl)/C=C/Br	inactive
CCC[C@@H](C)/C=C(\C)[C@H](O)[C@H](C)/C=C/CC[C@@H](O)[C@H](C)[C@H](O)[C@H](C)[C@H](O)[C@H](C)[C@H]1O[C@H]([C@H](C)C(=O)O)CC[C@@H]1C	inactive

###

# Experimental target: Glucocorticoid receptor (Homo sapiens)
# Protocol notes: GR-GFP Redistribution (AID 450); note: potency is the fitted concentration of half-maximal effect
# Condition details: U2OS GR-GFP nuclear translocation, laser cytometry, 2 h
The source made the active and inactive calls.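 The calls were made as follows: active = compounds whose dose series gives a full or clear partial fitted curve of increased nuclear translocation; inconclusive = weak partial curve or effect only at the top dose; inactive = no dose-dependent translocation response.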
Catalogue of molecules with associated Potency
Assay readout: Potency

Smiles representation	Experimental target	Value
C[C@H](O)CO[C@H]1[C@H]2O[C@H]3[C@H](O)[C@@H](O)[C@@H](O[C@H]4[C@H](O)[C@@H](O)[C@@H](O[C@H]5[C@H](O)[C@@H](O)[C@@H](O[C@H]6[C@H](O)[C@@H](OC[C@H](C)O)[C@@H](O[C@H]7[C@H](O)[C@@H](OC[C@H](C)O)[C@@H](O[C@H]8[C@H](O)[C@@H](O)[C@@H](O[C@@H]([C@@H]1O)[C@@H](CO)O2)O[C@@H]8CO)O[C@@H]7CO)O[C@@H]6CO)O[C@@H]5CO)O[C@@H]4CO)O[C@@H]3CO	Glucocorticoid receptor (Homo sapiens)	> 46 µM (inactive)
CCCCN1CCC(CCC(=O)c2cc(Cl)c(N)cc2OC)CC1	Glucocorticoid receptor (Homo sapiens)	> 46 µM (inactive)

###

# Experimental target: Cytochrome P450 2D6 (Homo sapiens) (UniProt P10635)
# Sequence (P10635 whole entry, looked up): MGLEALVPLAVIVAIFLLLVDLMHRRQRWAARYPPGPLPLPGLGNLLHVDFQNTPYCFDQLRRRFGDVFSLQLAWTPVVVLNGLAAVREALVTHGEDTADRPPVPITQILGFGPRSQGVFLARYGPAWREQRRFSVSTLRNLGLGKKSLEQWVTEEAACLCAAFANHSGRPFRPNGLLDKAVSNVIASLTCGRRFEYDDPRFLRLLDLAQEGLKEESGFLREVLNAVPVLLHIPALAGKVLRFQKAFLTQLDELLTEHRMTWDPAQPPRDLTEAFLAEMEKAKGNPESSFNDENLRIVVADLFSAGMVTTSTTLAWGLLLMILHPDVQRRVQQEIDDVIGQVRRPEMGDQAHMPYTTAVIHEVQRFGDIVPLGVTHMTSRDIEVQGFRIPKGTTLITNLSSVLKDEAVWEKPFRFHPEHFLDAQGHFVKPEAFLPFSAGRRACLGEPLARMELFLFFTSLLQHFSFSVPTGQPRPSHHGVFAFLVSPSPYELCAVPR
# Protocol notes: qHTS Assay for Inhibitors and Substrates of Cytochrome P450 2D6 (AID 891); note: nearly all actives have a fitted effect of over 60% in size; note: potency is the fitted concentration of half-maximal effect
# Condition details: recombinant CYP2D6, luciferin-ME EGE luminescence; series mostly up to 57.1 µM
Results filed as inconclusive are left out. Active and inactive are the calls of the source. The call rests on the fitted dose curve; in most records, active means well fitted inhibition curve with a large enough effect; inconclusive means small, poorly fitted or top-dose-only effect; inactive means no such curve, though single readings can be large or run the other way.

Smiles representation	Potency
COC(=O)C1=C(C)NC(C)=C([N+](=O)[O-])[C@@H]1c1ccccc1C(F)(F)F	6.31 µM (active)
c1ccc(N2CCN(CCCOc3ccc4c(c3)OCO4)CC2)cc1	0.126 µM (active)
O=C(O)[C@H]1CCCNC1	inactive
Cc1ccc(C(=O)Cn2c3c(sc2=N)CCCC3)cc1	inactive

###

# Protocol notes: qHTS for Inhibitors of Plasmodium falciparum (CP250) proliferation (AID 504320)
# Condition details: P. falciparum CP250 in erythrocytes, SYBR Green DNA, 72 h; series mostly up to 6.7 µM
# Source text: Plasmodium falciparum is a virulent malarial parasite that kills 1-2 million people worldwide each year. Malaria not only inflicts tremendous suffering and morbidity on the human population, but has dramatically influenced the course of civilization with profound sociological and economic implications (Shah, S. 2010). […] Because mature erythrocytes lack DNA, only Plasmodium-derived DNA is detected. […]
Inconclusive results are not listed. Calls of active or inactive are those of the source. Calls follow the shape of the dose curve; as a rule, active = well fitted inhibition curve with a large enough effect; inconclusive = small, poorly fitted or top-dose-only effect, or effect the other way; inactive = flat fitted curve, though single readings scatter.
Outcomes: true (1) for active, false (0) for inactive

Compound	Group
Cc1cc2c(c(=O)o1)[C@H]1O[C@](c3ccsc3)(Cc3cc(C#N)ccc31)O2	false (0)
O=C1Nc2cccc(Br)c2[C@@]12O[C@H](COc1ccccc1)CC1=CCCC12 (stereo partly drawn)	false (0)
COC(=O)CC=C[C@@H](C)[C@@H](COc1ccccc1Br)OC	false (0)
CC1(OC(=O)C2CCCC2)C(=O)C=C2C=C3CCCN3C=C2C1=O (stereo not drawn)	false (0)
Cc1ccc(C=CC2=C[C@]3(C)C[C@]2(C)[C@H](c2ccc(C)cc2)CC3=O)cc1	false (0)
COc1cc2c(cc1OC)[C@@H]1O[C@](c3ccsc3)(C2)Oc2cc(-c3ccccc3)oc(=O)c21	false (0)
CCCC[C@]12Cc3cc(C#N)ccc3[C@H](O1)c1c(cc(C)n(-c3ccccc3)c1=O)O2	false (0)
COc1cc2c(cc1OC)[C@@H]1O[C@](c3ccsc3)(C2)OC2=C1C(=O)CC(C)(C)C2	false (0)
COC1=CC2C(=O)C(C(c3ccccc3)C2C)C1(O)c1cccc(OC)c1 (stereo not drawn)	false (0)
COC(=O)C1=C(C(=O)OC)[C@@H]2N(C)c3ccccc3[C@@]23C[C@@H](C(=O)OC)N(C(=O)c2cc(C)oc2C)C3=N1	false (0)
O=C1Nc2ccccc2[C@@]12O[C@H](COc1ccccc1)CC1=C2CCC1	false (0)
COC(=O)C1=C(C)N(Cc2ccccc2)C(=O)NC1c1cccc(C(F)(F)F)c1 (stereo not drawn)	false (0)
CCOC(=O)CCN1C(=O)[C@@H]2[C@H]3[C@H](O)[C@H](O)CC(=NNC(=O)OCc4ccccc4)[C@H]3CC[C@H]2C1=O	false (0)
CCOC(=O)CN1C(=O)C2(CC(C)=C[C@@H](C)O2)c2c(Br)cccc21 (stereo partly drawn)	false (0)
Cc1cc2c(c(=O)n1Cc1ccccc1)[C@H]1O[C@](CCCCN3C(=O)c4ccccc4C3=O)(Cc3c1ccc1ccccc31)O2	true (1)
COC(=O)N[C@@H](c1cccc(C)c1)[C@]1(C(=O)OC)CCCC1=O	false (0)
CC1(OC(=O)C2CCCC2)C(=O)C=C2C=C(c3ccc(C#N)cc3)OC=C2C1=O (stereo not drawn)	false (0)
COc1cc2c(cc1OC)[C@@H]1O[C@](CCCCN3C(=O)c4ccccc4C3=O)(C2)OC2=C1C(=O)c1ccccc1C2=O	false (0)
O=C1[C@@H]2[C@H]3[C@H](O)[C@H](O)CC(=NOC[C@@H](O)COCc4ccco4)[C@@H]3CC[C@H]2C(=O)N1Cc1ccccc1	false (0)
COc1ccc(C(=O)Oc2cc(OC)cc(OC)c2C(C)=O)cc1	false (0)
C=C(C)C(=O)C=Cc1ccc(Br)cc1	false (0)
CCCC[C@]12Cc3cc(OC)c(OC)cc3[C@H](O1)C1=C(CC3(CCCCC3)OC1=O)O2	false (0)
COc1cc(C(NC(=O)C(F)(F)F)c2cc3ccccc3o2)cc(OC)c1OC (stereo not drawn)	false (0)
C=CCOC(=O)N[C@H](c1ccc2ccccc2c1)[C@H](C)C=CCC(=O)OC	false (0)
COC[C@H]1O[C@H](c2ccccc2)C=C[C@H]1OCC=C(C)C	false (0)
COc1ccc2ccccc2c1-c1c(OC)ccc2ccccc12	false (0)
COC(=O)C1=C[C@@H]([C@@H](C)[C@H](OC)c2ccccc2Br)[C@@H]2OCCC[C@H]12	false (0)
CCCCc1nc2c(c3c1C[C@H](C)OC3)CN(C(=O)C1CCCCC1)CC2	false (0)
CCCCCCCc1cc2ccccc2c2c(C(=O)OC)cc(C(=O)OC)n12	false (0)
COc1cccc([C@@H]2Oc3ccc(Br)cc3C(=O)[C@@H]2O)c1	false (0)
C[C@H]1CC[C@H]2C(=O)N(Cc3ccc(Cl)cc3)C[C@@H](O)CN2[C@H]1c1ccc(Br)cc1	false (0)
COC(=O)N[C@H](c1ccccc1)C(C(=O)OC)C(=O)OC	false (0)
C=CCN1c2ccccc2[C@]23CCC(=O)N(Cc4cc(OC)c(OC)c(OC)c4)C2=NC(C(=O)OC)=C(C(=O)OC)[C@H]13	false (0)
C=CCN1C(=O)[C@]2(OCCC=C[C@H]2C)c2ccccc21	false (0)
COc1cc2c(cc1OC)CSC1C(=O)N(C)C(SC2)C(=O)N1C	false (0)
C=CCC1(O)C=CCC2C3C4C(OC(C)(C)C)C2C1C34 (stereo not drawn)	false (0)
C=CC[C@@H]1C=C[C@@H](Oc2ccc(OC)cc2)[C@H](COC(=O)c2ccc(Br)cc2)O1	false (0)
C[C@H]1Cc2c(-c3ccccc3)nc3c(c2CO1)CN(C(=O)c1cccnc1)CC3	false (0)
